Measured pIC50 by item
# System: SKBR3 (PI3Kα-Wild Type) cell line
# method-notes: HTRF phospho-AKT(S473) cell assay in SKBR3 cells
# Assay type: cell-based, human
# condition-info: Homo sapiens, SK-BR-3; HTRF phospho-AKT(S473), SKBR3 (PI3Kα-Wild Type) cells, 2 hours compound incubation, PDGF-BB stimulated
pIC50: −log10 of the molar value.

Reference set (3 entries):
- Cc1cc([C@@H](C)Nc2ccc(Cl)nc2C(=O)NS(C)(=O)=O)c2nc(-c3ccc4oc(C)nc4c3)n(C)c(=O)c2c1: ≤ 5.30
- Cc1cc([C@@H](C)Nc2ccc(Cl)nc2C(=O)NS(C)(=O)=O)c2nc(N3CCC(n4nc(C)cc4F)CC3)n(C)c(=O)c2c1: ≤ 5.30
- Cc1cc([C@@H](C)Nc2ccc(Cl)nc2C(=O)NS(C)(=O)=O)c2nc(N3CCC(c4nc(C)n(C)n4)CC3)n(C)c(=O)c2c1: ≤ 5.30

Problem: Which pIC50 value is on record for Cc1cc([C@@H](C)Nc2ccc(Cl)nc2C(=O)NS(C)(=O)=O)c2nc(N3CCC(c4ncc(C)nc4C)CC3)n(C)c(=O)c2c1 ?
Solution: ≤ 5.30

Problem: Which pIC50 value is on record for Cc1cnc(C2CCN(c3nc4c([C@@H](C)Nc5ccc(Cl)nc5C(=O)NS(C)(=O)=O)cc(Cl)cc4c(=O)n3C)CC2)cn1 ?
Solution: 5.30 to 6.00

Problem: Which pIC50 value is on record for Cc1cc([C@@H](C)Nc2ccc(Cl)nc2C(=O)NS(C)(=O)=O)c2nc(N3C[C@@H]4CC4(c4cnc(C)nc4)C3)n(C)c(=O)c2c1 (relative stereo) ?
Solution: ≤ 5.30

Problem: Which pIC50 value is on record for Cc1cc([C@@H](C)Nc2ccc(Cl)nc2C(=O)NS(C)(=O)=O)c2nc(N3Cc4cncnc4C3)n(C)c(=O)c2c1 ?
Solution: 5.30 to 6.00

Problem: Which pIC50 value is on record for Cc1cc([C@@H](C)Nc2ccc(Cl)nc2C(=O)NS(C)(=O)=O)c2nc(N3CCC(c4nc(C)n(C(F)F)n4)CC3)n(C)c(=O)c2c1 ?
Solution: 5.30 to 6.00

Problem: Which pIC50 value is on record for Cc1cc([C@@H](C)Nc2ccc(Cl)nc2C(=O)NS(C)(=O)=O)c2nc(-c3ccc(C4(C#N)CC4)cc3)n(C)c(=O)c2c1 ?
Solution: 5.30 to 6.00

Problem: Which pIC50 value is on record for COc1cc(N2C[C@H]3C[C@@H]2CN3c2nc3c([C@@H](C)Nc4ccc(Cl)nc4C(=O)NS(C)(=O)=O)cc(C)cc3c(=O)n2C)ccn1 ?
Solution: ≤ 5.30

Problem: Which pIC50 value is on record for Cc1cc([C@@H](C)Nc2ccc(Cl)nc2C(=O)NS(C)(=O)=O)c2nc(N3C[C@@H]4[C@H](C3)[C@H]4c3ncn(C)n3)n(C)c(=O)c2c1 ?
Solution: 5.30 to 6.00

Problem: Which pIC50 value is on record for C[C@@H](Nc1ccc(Cl)nc1C(=O)NS(C)(=O)=O)c1cc(C(F)(F)F)cc2c(=O)n(C)c(N3C[C@@H]4[C@H](C3)[C@H]4c3ccn(C)n3)nc12 ?
Solution: 5.30 to 6.00
